test: protease stability score; higher = more stable; yeast display proteolysis, trypsin and chymotrypsin;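 further: log10 excess protease needed over predicted unfolded state with 0 meaning unfolded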
Experimental Endpoint: protease stability score

Biopolymer Sequence | Result Number
DEHADTIVKKYLDAIKSNNPEDVKENVDKDVDVEVGDTSWHGRDEVVTRVQNELDEIRIDMKVDEVNNQGNHVEVKMHMTLDINGKPATVDWDVKFDIQNGRIQSIRLRPDEENRKQKEK | 0.057
DEDEQKVAKTFVEAVRQGDEKQIDDLADPNVRLRVGDKTLHGRDQLREHVRQMKEELKVEWSVQHVDFSDGRARIHAEMRVDVNGKPVTDDVTFFIEVKNGKVKNVEIHMDESVKREAEQ | 0.548
DEEDERTVKERMKKNNFDELAKNADENARATYGDKTYHGREQVRKAAKDFKDAVDRVKIDSISVHNGTVRMEFTVVINGRHFEMVLYVHVHNGKVQHMEFQATDDKIRKDLKRLQE | -0.275
EDENMETMKDLLRAWQEGDEDRAQENADKDVTVEYGDRSFHGRSQLHRLVKERREKMRVQIKDVRFDISGDKIKIDLTYTKDHNGRPETRRVRIIARVNNGKVKFVRLDEHG | 0.652
DEEDKKRLDTFDDNEDRGDRTKVRELADPNAKYEYGDNTVHGREDLEKMVHHLKNQLRIRVKSVEKRMHNGTLRASQREQQDHNGRPDDNSFDQDVHIHNGRIKQNVVEERK | -0.15
DERAKEQMKNFQQAVSEGDPDQFRELMDKDARMVIGDQQLHGREKMMHQWQRLTRRIRREVKSVDVQVRGDTAELDIHFEQRKDGQPTKNSAVLEAVVHNGKVKELRVKNKR | 0.078

----------
assay: protease stability score; higher = more stable; yeast display proteolysis, trypsin and chymotrypsin;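 further: log10 excess protease needed over predicted unfolded state with 0 meaning unfolded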

Biopolymer Sequence | protease stability score
DEEHVKRMATTFAKQMRHNNPDDIMKQMDKNVQLRYGDKEVEGDENVRRRLKTLHDQVDHVEVKDYTAHGNSIRIVVRLEVNGKTANFVLIVIVENGRVLKANIDPKALDSYEK | 0.253
DEKDVEKIMKKMDETFVKGNTEELEKLGKEDVEVQYGDKREKGPDAIRKVLEKVKQLGIKVEYKEVHIKGDTATVKVEADMAGQTARFEVTYVVRGNRVDRVVVKYDEEAQKVIKHG | 0.772
DEERSAHKFLKDMEKLMRTGDFQEVAKLFDKHAKVEVGDKRVHGREQIIRTNQQWEKRVDSVDLKIQHVSVKGEDVDVHYNMVLRYNGRNDNRVYRFVATVHGDKVRITHMELE | 0.348
DEENLRTLAQEVKDILQTGDEEKLKEMLDKDVRLEVGDHVYEGSENAAKAANHWKERADHIQVDSIEIHGNELRIDVRVNVNGKNIDIDIVVTFSNGRIREMKFQYRDEDEKRQLER | 0.809
DEEYAHQLREFLEAWVSGDENRAKQLADPNARVNVGEERISGMDEFMKEVRKRKKEMRIEVKHIKIEVRPNKAKADVKFRVNFNGTPFDVNQKWQAHWHNGKLHSVTVNMDEDQKRFEKG | 0.451

----------
test: protease stability score; higher = more stable; yeast display proteolysis, trypsin and chymotrypsin;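 further: log10 excess protease needed over predicted unfolded state with 0 meaning unfolded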
Experimental Endpoint: protease stability score

Biopolymer Sequence | Result Number
DDKDQHEEVEKFARNVVSGNSDELRKQMDKDVRANVGDKTLRGREEVADFWKHMRDRIDHAEIKEIRFHNGEARIVMQFVHNGRTKQINIVMEFHDGHVKRLRVEDG | 2.73
DEDAVRLAHKFQDVLNKGDPDKAMRLADPNARVQIGDTEIRGREQLSHHVNEMSNSIRFDLKHVDAQTRGDHVDVRVDQINEVDGRPTRNTDKMTIQIKNGKIVNVNVRVDEDRKQQERD | -0.632
DKEDVDHLERIMRKGDWDQLKDHADKDVTVVVGDRNIHGREKANNFLKRFKERVDHQEVRRLDVSGNEVVVDMVFNVNGRKIRATVVAVAHNGRLKEVVMRFTSEDDKRRATEAFD | 0.454
DEEAQKLLDMLRKAEQTGDEDRVRQLADEDVKVRIGDKVIHGREEWARHVRRERNEMRFKIQDLKVDVQGDHLSVKYTAHRDHNGQPQSDTYHYTLQMHNGRIKHLNVTEEK | -0.004
EEELVKKAKTFMKQEEDGNPEKLKEYADENVRMHVGNKEVRGMDQYAEDVRRKREEARFSFKSIDAKASGDKITVRATLTFNVNGKPVEIDMTIILKLHNGRLKFLKVRVDPDEERRLES | 0.595
